Where do these numbers come from? They come from PubChem BioAssay AID2314.

- test protocol: Cycloheximide Counterscreen for Small Molecule Inhibitors of Shiga Toxin; further: read at 38.3 µM for the half of the compounds with a filed dose; 0% is about no effect
- test context: cell reporter, cycloheximide protein synthesis inhibition counterscreen; stronger effect = higher value
Hit rate of the full screen: of about 300,000 compounds, about 37,000 (12%) were called active. Only a selection was taken, and actives are over-represented in it overall.
Would you mind telling me the reported max response of each entry?
All answers are understood in %, so give the number only.

What value of max response has been recorded for this entry: CCCC1OC23CCCCC2C(C#N)(C#N)C1(C#N)C(=N)O3 (stereo not given)
-1.48

What value of max response has been recorded for this entry: C=Cc1ccc(C(=O)N2CCCC(CCC(=O)N3CCN(c4ccccn4)CC3)C2)cc1 (stereo not given)
-3.56

What value of max response has been recorded for this entry: CSc1ncc(C(=O)NCCCc2ccccc2)c(C)n1
10.8

What value of max response has been recorded for this entry: COc1ccc(NS(=O)(=O)c2ccc(N3CCN(CCO)CC3)c([N+](=O)[O-])c2)cc1
1.31

What value of max response has been recorded for this entry: COC(=O)c1ccc(C2C3=C(Nc4nnnn42)c2ccccc2OC3)cc1 (stereo not given)
17.4

What value of max response has been recorded for this entry: Cc1c(NC(=O)c2cc(-c3ccc(Br)cc3)on2)c(=O)n(-c2ccccc2)n1C
-1.9

What value of max response has been recorded for this entry: CC(C)CNC(=O)c1cc(-c2ccc(Br)cc2)on1
36

What value of max response has been recorded for this entry: Cc1ccc(-n2c(O)c(C=Nc3ccc(S(=O)(=O)Nc4ncccn4)cc3)c3ccccc3c2=O)cc1C
9.64

What value of max response has been recorded for this entry: C[C@H](NC(=O)NCCc1ccccc1)C(=O)O
-6.82

What value of max response has been recorded for this entry: CC(=O)N1CCOc2ccc(S(=O)(=O)N3CCC(C(=O)Nc4ccccc4F)CC3)cc21
-0.955
